Value source: paper PMC6299220

// values below are reported MIC
- Test system: M. tuberculosis DRM167-32x11 (KasA G240S)
- Assay type: cell-based, Mycobacterium tuberculosis
Please give a number only; it is taken to be in µM.

Examples with answers:
[[record]]
compound = "CO[C@H]1/C=C/O[C@@]2(C)Oc3c(C)c(O)c4c(O)c(c(/C=N/N5CCN(C)CC5)c(O)c4c3C2=O)NC(=O)/C(C)=C\\C=C\\[C@H](C)[C@H](O)[C@@H](C)[C@@H](O)[C@@H](C)[C@H](OC(C)=O)[C@@H]1C [RIF, rifampin]"
readout_name = "MIC"
number = 0.001

[[record]]
compound = "COc1nc2ccc(Br)cc2cc1[C@@H](c1ccccc1)[C@@](O)(CCN(C)C)c1cccc2ccccc12 [BDQ, bedaquiline]"
readout_name = "MIC"
number = 0.25


Task item: Report MIC for CC(C)=CCC/C(C)=C/CNCCNC1C2CC3CC(C2)CC1C3 (stereo not drawn) [SQ109] please.
Reply: 0.4

Task item: Report MIC for CCCCS(=O)(=O)Nc1ccc2cnn(C)c2c1 [DG167] please.
Reply: 100

Task item: Report MIC for NNC(=O)c1ccncc1 [INH, isoniazid] please.
Reply: 0.19

Task item: Report MIC for CC[C@@H](CO)NCCN[C@@H](CC)CO [EMB, ethambutol] please.
Reply: 1.56

Task item: Report MIC for COc1c(N2C[C@@H]3CCCN[C@@H]3C2)c(F)cc2c(=O)c(C(=O)O)cn(C3CC3)c12 [Moxi, moxifloxacin] please.
Reply: 0.03

Task item: Report MIC for CCc1cc(C(N)=S)ccn1 [ETH, ethionamide] please.
Reply: 12.5

Task item: Report MIC for O=[N+]([O-])c1cn2c(n1)OC[C@@H](OCc1ccc(OC(F)(F)F)cc1)C2 [PA824] please.
Reply: 0.1
